Assay Summary: 50% lethal dose for inhibition of KB cells growth
Assay type: cell-based
Assay Context: human, read-out: LD50 (the source's name)
Lab note: anything with CC50 below 200 µM is marked rule met; values at 200 µM or higher are marked rule not met.

Record excerpt, results attached:
## Task Hi there! Is CC50 for CCCCCCCCNC(P(=O)(O)O)P(=O)(O)O [(OCTYLAMINO)METHYLENEDIPHOSPHONIC ACID] below 200 µM, do you know?
## Result rule met

## Task Hi there! Is CC50 for CC(N)CC(O)(P(=O)(O)O)P(=O)(O)O (configuration not stated) below 200 µM, do you know?
## Result rule not met

## Task Hi there! Is CC50 for CCCCC(O)(P(=O)(O)O)P(=O)(O)O below 200 µM, do you know?
## Result rule not met

## Task Hi there! Is CC50 for CCN(CC)C(P(=O)(O)O)P(=O)(O)O [(DIETHYLAMINO)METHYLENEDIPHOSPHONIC ACID] below 200 µM, do you know?
## Result rule not met

## Task Hi there! Is CC50 for CCCCCCCCCC(O)(P(=O)(O)O)P(=O)(O)O below 200 µM, do you know?
## Result rule not met

## Task Hi there! Is CC50 for O=P(O)(O)C(O)(Cc1c[nH]cn1)P(=O)(O)O below 200 µM, do you know?
## Result rule met

## Task Hi there! Is CC50 for O=P(O)(O)C(O)(Cc1cccnc1)P(=O)(O)O [RISEDRONIC ACID] below 200 µM, do you know?
## Result rule not met

## Task Hi there! Is CC50 for Cc1cccnc1NC(P(=O)(O)O)P(=O)(O)O below 200 µM, do you know?
## Result rule met

Continuing:
## Task Hi there! Is CC50 for O=P(O)(O)C(O)(Cc1ccccn1)P(=O)(O)O below 200 µM, do you know?
## Result rule met
